tested.on: TNFα and streptavidin immobilized FOL2R (Homo sapiens (Human), UniProt P01375+P14207)
Sequence (P14207 17-230): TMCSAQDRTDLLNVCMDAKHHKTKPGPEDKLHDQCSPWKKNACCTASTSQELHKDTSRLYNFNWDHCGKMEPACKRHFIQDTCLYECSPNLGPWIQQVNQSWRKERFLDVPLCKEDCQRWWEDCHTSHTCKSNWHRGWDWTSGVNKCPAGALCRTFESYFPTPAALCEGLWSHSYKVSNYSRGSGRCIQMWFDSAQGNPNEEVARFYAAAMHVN
Sequence (P01375 77-233): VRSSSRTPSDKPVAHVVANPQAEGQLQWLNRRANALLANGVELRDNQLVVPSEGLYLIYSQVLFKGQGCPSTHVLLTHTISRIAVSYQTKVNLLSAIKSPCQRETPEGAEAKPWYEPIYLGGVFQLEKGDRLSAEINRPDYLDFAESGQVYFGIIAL
assay.info: Ternary complex SPR assay
Type: binding
test.settings: 150 nM untagged TNF, 10 nM compound; max response normalized to expected response
Consider the following compounds and their measured TC 150 nM- tagless TNF Normalized readings.

{"compound": "Cc1nc2cc(F)c(-c3cnc(N4CCN(C(=O)COCCn5cc(COCCOCCOCCOCCNC(=O)CCCNC(=O)c6ccc(NCc7cnc8nc(N)nc(O)c8n7)cc6)nn5)CC4)nc3)nc2c(N[C@H](C)c2cc(C#N)ccc2F)c1Cl [Compound I-96]", "TC 150 nM- tagless TNF Normalized": "17.1%"}
{"compound": "Cc1nc2cc(F)c(-c3cnc(N4CCN(C(=O)COCCn5cc(COCCOCCOCCOCCNC(=O)CC[C@H](NC(=O)c6ccc(SCCc7cc8c(=O)[nH]c(N)nc8[nH]7)cc6)C(=O)O)nn5)CC4)nc3)nc2c(N[C@H](C)c2cc(C#N)ccc2F)c1Cl [Compound I-98]", "TC 150 nM- tagless TNF Normalized": "16.7%"}
{"compound": "Cc1nc2cc(F)c(-c3cnc(N4CCN(C(=O)COCCOCCOCCOCCOCCOCCn5cc(CC[C@H](NC(=O)c6ccc(NCc7cnc8nc(N)nc(O)c8n7)cc6)C(=O)O)nn5)CC4)nc3)nc2c(N[C@H](C)c2cc(C#N)ccc2F)c1Cl [Compound I-92]", "TC 150 nM- tagless TNF Normalized": "16.9%"}
{"compound": "Cc1nc2cc(F)c(-c3cnc(N4CCN(C(=O)COCCn5cc(CCCN6CCC7(CC6)CCN(C(=O)CC[C@H](NC(=O)c6ccc(NCc8cnc9nc(N)nc(O)c9n8)cc6)C(=O)O)CC7)nn5)CC4)nc3)nc2c(N[C@H](C)c2cc(C#N)ccc2F)c1Cl [Compound I-90]", "TC 150 nM- tagless TNF Normalized": "20.4%"}
